# phosphorylation enrichment annotations
Target: Hck (UniProt P08631)
Sequence (P08631 whole entry, looked up): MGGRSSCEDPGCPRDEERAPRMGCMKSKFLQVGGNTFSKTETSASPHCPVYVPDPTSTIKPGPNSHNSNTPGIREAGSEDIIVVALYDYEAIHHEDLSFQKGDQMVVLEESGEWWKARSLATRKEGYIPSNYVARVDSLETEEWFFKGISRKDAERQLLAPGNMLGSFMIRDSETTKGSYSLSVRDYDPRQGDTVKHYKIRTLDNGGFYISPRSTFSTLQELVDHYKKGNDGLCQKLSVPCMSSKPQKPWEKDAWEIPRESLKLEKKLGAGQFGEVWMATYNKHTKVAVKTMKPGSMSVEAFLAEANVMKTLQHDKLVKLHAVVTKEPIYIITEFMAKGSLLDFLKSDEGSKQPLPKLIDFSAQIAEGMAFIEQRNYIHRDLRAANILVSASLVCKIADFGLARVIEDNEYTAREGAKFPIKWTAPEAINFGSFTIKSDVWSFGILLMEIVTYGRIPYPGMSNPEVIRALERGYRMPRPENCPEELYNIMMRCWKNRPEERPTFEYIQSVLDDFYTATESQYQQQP
Assay: phosphorylation enrichment, bacterial display (enrichment ratio); higher = better substrate or ligand; peptides without Tyr show the background;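 note: 11-residue human phosphosite peptides and single-mutation variants displayed on the E. coli surface, counted by deep sequencing, each peptide's frequency after selection divided by its frequency in the unselected input library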;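 note: frequency after pTyr selection over input frequency; kinase dosed for 20-30% of maximal phosphorylation in three min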
Recorded endpoint: phosphorylation enrichment

Ordered residues: RGDVIYKGFED [NFU1_Y194_G189R]
Measured: 1.07
//
Ordered residues: LITTLYIGFLD [KCNQ1_Y267_G272D]
Measured: 1.71
//
Ordered residues: DVFLKYLNFAT [PDE6B_Y212]
Measured: 0.544
//
Ordered residues: LARDMDDKEYY [MET_Y1230_Y1230D]
Measured: 0.723
//
Ordered residues: FRPPFYHRDCM [HGD_Y334_N337D_YF]
Measured: 0.507
//
Ordered residues: SVVVPYETPEV [TP53_Y220_P222T]
Measured: 0.56
//
Ordered residues: DNQFAYLKAII [HNF4A_Y288_E285Q_YF]
Measured: 0.393
//
Ordered residues: DMDATYRPMYS [JUP_Y701]
Measured: 0.677
//
Ordered residues: GEVLVYAEDPA [FLNA_Y319_V320A]
Measured: 0.543
//
Ordered residues: PYYASYPPSPD [GDAP2_Y491_T489A]
Measured: 4.78
//
Ordered residues: ATAKGYEPDAS [OTC_Y223_P220A]
Measured: 0.483
//
Ordered residues: KGSEGYLAAIY [NF1_Y2503_T2507I]
Measured: 1.09
//
Ordered residues: YCRHNYGVVES [HLA-DRB1_Y112]
Measured: 0.458
//
Ordered residues: FEGHSYSACTT [MMP9_Y241_R239H]
Measured: 0.486
//
Ordered residues: LWPIWYRCRRP [MRGPRX1_Y130_H133R]
Measured: 0.805
//
Ordered residues: FQKDVYNIPPS [NEDD9_Y177_D178N_YF]
Measured: 1.31
//
Ordered residues: INPIIYAFVVE [CCR5_Y297_G301V]
Measured: 1.78
//
Ordered residues: GIVKAYFVRAR [AIPL1_Y267_YF]
Measured: 0.503
//
Ordered residues: SGIFQYNIAKF [FOXL2_Y83_I84N_YF]
Measured: 0.494
//
Ordered residues: FTYDPYSEEDP [IL2RB_Y387]
Measured: 1.01
//
Ordered residues: GEDEPYSEPYA [APBA1_Y183]
Measured: 0.477
//
Ordered residues: RVGNMYVRGLS [ABCG8_Y209]
Measured: 0.675
//
Ordered residues: CKSVHYDLVFL [COL22A1_Y37]
Measured: 0.632
//
Ordered residues: FQLPFYNMVPS [BMPR1A_Y458_YF]
Measured: 1.07
//
Ordered residues: FGYPGYQSKHY [TIMP3_Y177]
Measured: 0.414
//
Ordered residues: GEPLSHTRFSL [TFRC_Y20_Y20H]
Measured: 0.478
//
Ordered residues: FETSHYLASPD [CTNND2_Y1217_P1218L_YF]
Measured: 0.513
//
Ordered residues: LEIETDRRLLD [KRT12_Y429_Y429D]
Measured: 1.08
//
Ordered residues: AKGMKYVASKK [MET_Y1194_L1195V]
Measured: 0.425
//
Ordered residues: IPGRYYETGSI [PAX2_Y73_L69P]
Measured: 0.428
//
Ordered residues: KNNDGYTDFAE [MCFD2_Y135_I136T_YF]
Measured: 0.529
//
Ordered residues: WEQELYSQLVY [WAS_Y102]
Measured: 8.84
//
Ordered residues: RNAAEYLLSSG [ABL1_Y139]
Measured: 0.48
//
Ordered residues: NTDETYSIDNE [TUBB2B_Y200_C201S]
Measured: 0.694
//
Ordered residues: QNAGDYFDLFG [PTPN11_Y62_T59A_YF]
Measured: 1.02
//
Ordered residues: NNRVFYGNSDC [RS1_Y177_R182C]
Measured: 0.429
//
Ordered residues: FSKDIYKRVTG [PANK2_Y405_N404I_YF]
Measured: 0.423
//
Ordered residues: LEIETYRRLRD [KRT12_Y429_L433R]
Measured: 0.674
//
Ordered residues: PKEQKYSFLQD [GH1_Y68_N73D]
Measured: 0.619
//
Ordered residues: ATVLNYLPKCI [A2M_Y817]
Measured: 0.599
//
Ordered residues: EIRTQDEAMAS [GFAP_Y242_Y242D]
Measured: 0.443
//
Ordered residues: DFAIVYGTIIL [GPR179_Y460_G455D]
Measured: 0.665
//
Ordered residues: PRRRFYVVACD [RNASE3_Y134_G130R]
Measured: 0.705
//
Ordered residues: PELINYHQHNS [BTK_Y361]
Measured: 0.69
//
Ordered residues: PRDSGYSYETI [MAP1B_Y1921_S1917R]
Measured: 0.405
//
Ordered residues: NPETCYQKLKK [TK2_Y190_R192K]
Measured: 0.583
//
Ordered residues: AFLEDYFTSTK [SRC_Y522_E527K]
Measured: 0.52
//
Ordered residues: GNHVSYYQSDG [CACNA1C_Y1757]
Measured: 0.57
//
Ordered residues: GPSTPYTKSKR [SMARCC2_Y324]
Measured: 0.319
//
Ordered residues: TSAEGYQDVRD [ABLIM1_Y439_P434T]
Measured: 0.691
//
Ordered residues: QHNPEYVQQAT [LRRC7_Y1058_S1063T]
Measured: 0.491
//
Ordered residues: HLVLNYGVCIC [JAK2_Y613_V617I]
Measured: 0.484
//
Ordered residues: LSALDYKIFFF [WDPCP_Y210_YF]
Measured: 0.585
//
Ordered residues: LPKEQYLYTKE [AFG3L2_Y614]
Measured: 0.767
//
Ordered residues: EYLQKYKGFKI [SYNE1_Y6953]
Measured: 0.345
//
Ordered residues: NAGDYYDLYGG [PTPN11_Y63_T59A]
Measured: 6.95
//
Ordered residues: TTIVSYRASQP [MKI67_Y1737_K1734I]
Measured: 0.481
